EXPERIMENTAL TARGET: human m4 muscarinic acetylcholine receptor expressed in CHO cells (Homo sapiens, UniProt P08173)
Sequence (P08173 whole entry): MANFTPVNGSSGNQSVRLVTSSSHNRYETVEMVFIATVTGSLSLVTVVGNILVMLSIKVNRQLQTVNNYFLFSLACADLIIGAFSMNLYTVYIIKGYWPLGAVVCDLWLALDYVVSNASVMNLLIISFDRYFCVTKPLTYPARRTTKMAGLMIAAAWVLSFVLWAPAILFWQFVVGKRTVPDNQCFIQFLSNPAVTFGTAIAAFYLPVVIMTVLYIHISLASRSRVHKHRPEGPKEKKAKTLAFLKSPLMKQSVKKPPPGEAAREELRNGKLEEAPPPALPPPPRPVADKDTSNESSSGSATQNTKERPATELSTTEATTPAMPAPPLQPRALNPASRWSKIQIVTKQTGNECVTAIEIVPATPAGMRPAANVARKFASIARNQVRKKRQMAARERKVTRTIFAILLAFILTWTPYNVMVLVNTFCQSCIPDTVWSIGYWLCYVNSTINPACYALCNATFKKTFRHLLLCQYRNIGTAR
pKi: −log10 of the molar value.
ASSAY ENDPOINT: pKi

COMPOUND: O=C(NC[C@H]1CCC[N+]2(CCCC2)C1)[C@H]1CCCN1C(=O)[C@@H]1C[C@@H](O)CN1C(=O)CC(c1ccccc1)(c1ccccc1)c1ccccc1.[Cl-]
ENDPOINT VALUE: 7.13

I: CCCCCN1CCC[C@H](CNC(=O)CCNC(=O)CNC(=O)CC(c2ccccc2)(c2ccccc2)c2ccccc2)C1
II: O=C(CCNC(=O)[C@H](Cc1c[nH]cn1)NC(=O)CC(c1ccccc1)(c1ccccc1)c1ccccc1)NC[C@H]1CCCN(CC2CCCCC2)C1
III: CC[C@H](C)C[N+]1(CC)CCC[C@@H](CNC(=O)CCCCCNC(=O)CC(c2ccccc2)(c2ccccc2)c2ccccc2)C1.[Cl-] (stereo partly drawn)
IV: CC[N+]1(CC)CCC[C@H](CNC(=O)[C@H]2CCCN2C(=O)[C@@H]2C[C@@H](O)CN2C(=O)CC(c2ccc(Cl)cc2)(c2ccc(Cl)cc2)c2ccc(Cl)cc2)C1.[Cl-]
V: CC[N+]1(CC)CCC[C@H](CNC(=O)[C@H]2CCCN2C(=O)[C@@H]2C[C@@H](O)CN2C(=O)CC(c2ccccc2)(c2ccccc2)c2ccccc2)C1.[Cl-]
Number of compounds to sort: 5. Sort criterion: pKi, ascending. The labels, placed in the requested order, form the answer.
III, V, I, IV, II

----------
EXPERIMENTAL TARGET: human m3 muscarinic acetylcholine receptor expressed in CHO cells (Homo sapiens)
Construct: purchased Receptor Biology, Inc; host or cells: CHO cells
EXPERIMENT NOTES: Inhibition of [3H]-N-methylscopolamine binding to muscarinic m3 receptor
COND: ratio of Ki m5 to Ki m3
ASSAY ENDPOINT: Selectivity m5/m3 (times)

COMPOUND: O=C(NC[C@H]1CCC[N+]2(CCCC2)C1)[C@H]1CCCN1C(=O)[C@@H]1C[C@@H](O)CN1C(=O)CC(c1ccccc1)(c1ccccc1)c1ccccc1.[Cl-] [Example 151]
UNIT ABBREVIATION: times
Selectivity m5/m3: 250

P: CC[N+]1(CC)CCC[C@H](CNC(=O)[C@H]2CCCN2C(=O)[C@@H]2C[C@@H](O)CN2C(=O)CC(c2ccc(Cl)cc2)(c2ccc(Cl)cc2)c2ccc(Cl)cc2)C1.[Cl-] [Example 144]
Q: CC[N+]1(CC)CCC[C@H](CNC(=O)[C@H]2CCCN2C(=O)[C@@H]2C[C@@H](O)CN2C(=O)CC(c2ccccc2)(c2ccccc2)c2ccccc2)C1.[Cl-] [Example 133]
Pick one: P or Q . Which one has the lower reported Selectivity m5/m3? Pick one; state its label.
P

----------
EXPERIMENTAL TARGET: human m3 muscarinic acetylcholine receptor expressed in CHO cells (Homo sapiens, UniProt P20309)
Construct: purchased Receptor Biology, Inc; host or cells: CHO cells
Sequence (P20309 whole entry): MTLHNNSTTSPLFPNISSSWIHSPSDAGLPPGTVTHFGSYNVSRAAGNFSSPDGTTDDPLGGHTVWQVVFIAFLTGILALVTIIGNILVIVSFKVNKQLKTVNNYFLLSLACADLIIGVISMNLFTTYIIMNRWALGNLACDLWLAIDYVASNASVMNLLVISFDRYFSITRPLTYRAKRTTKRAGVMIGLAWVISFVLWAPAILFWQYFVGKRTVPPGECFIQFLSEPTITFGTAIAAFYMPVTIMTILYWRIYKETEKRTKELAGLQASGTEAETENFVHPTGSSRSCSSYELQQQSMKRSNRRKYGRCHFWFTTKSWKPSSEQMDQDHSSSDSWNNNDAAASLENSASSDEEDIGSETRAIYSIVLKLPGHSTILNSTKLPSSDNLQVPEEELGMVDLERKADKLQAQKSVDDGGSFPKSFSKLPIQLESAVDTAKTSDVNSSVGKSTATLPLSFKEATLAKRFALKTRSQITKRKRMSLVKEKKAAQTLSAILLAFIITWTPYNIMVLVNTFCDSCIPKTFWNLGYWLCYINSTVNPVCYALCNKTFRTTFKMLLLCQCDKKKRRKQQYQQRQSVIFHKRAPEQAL
EXPERIMENT NOTES: Inhibition of [3H]-N-methylscopolamine binding to muscarinic m3 receptor
COND: ratio of Ki m2 to Ki m3
ASSAY ENDPOINT: Selectivity m2/m3 (times)

MOLECULE: O=C(NC[C@H]1CCC[N+]2(CCCC2)C1)[C@H]1CCCN1C(=O)[C@@H]1C[C@@H](O)CN1C(=O)CC(c1ccccc1)(c1ccccc1)c1ccccc1.[Cl-] [Example 151]
Selectivity m2/m3 / times: 130

A: CC[C@H](C)C[N+]1(CC)CCC[C@@H](CNC(=O)CCCCCNC(=O)CC(c2ccccc2)(c2ccccc2)c2ccccc2)C1.[Cl-] (stereo partly drawn) [Example 150]
B: CCCCCCC[N+]1(C)CCC[C@H](CNC(=O)CCNC(=O)CNC(=O)CC(c2ccccc2)(c2ccccc2)c2ccccc2)C1.[Br-] (stereo partly drawn) [Example 146]
Pick one: A or B . Which has the bigger Selectivity m2/m3 number? Pick one; state its label.
A
(A: 100 times, B: 67 times)

----------
EXPERIMENTAL TARGET: human m1 muscarinic acetylcholine receptor expressed in CHO cells (Homo sapiens, UniProt P11229)
Sequence (P11229 whole entry): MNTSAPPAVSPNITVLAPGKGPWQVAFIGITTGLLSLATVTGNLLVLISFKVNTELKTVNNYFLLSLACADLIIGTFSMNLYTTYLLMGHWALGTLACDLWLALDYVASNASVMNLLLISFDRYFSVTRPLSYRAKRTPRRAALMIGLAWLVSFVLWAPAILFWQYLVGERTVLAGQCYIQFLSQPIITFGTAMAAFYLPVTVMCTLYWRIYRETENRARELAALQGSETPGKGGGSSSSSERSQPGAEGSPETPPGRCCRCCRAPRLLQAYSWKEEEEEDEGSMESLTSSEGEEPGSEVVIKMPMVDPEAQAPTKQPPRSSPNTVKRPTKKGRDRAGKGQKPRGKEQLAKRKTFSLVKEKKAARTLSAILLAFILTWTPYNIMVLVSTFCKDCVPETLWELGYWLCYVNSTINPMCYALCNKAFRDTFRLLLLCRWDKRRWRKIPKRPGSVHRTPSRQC
ASSAY ENDPOINT: Ki (nM)

I: O=C(CCNC(=O)[C@H](Cc1c[nH]cn1)NC(=O)CC(c1ccccc1)(c1ccccc1)c1ccccc1)NC[C@H]1CCCN(CC2CCCCC2)C1 [Example 19]
II: O=C(CCCCCNC(=O)CC(c1ccccc1)(c1ccccc1)c1ccccc1)NC[C@H]1CCCN(CC2CCCCC2)C1 [Example 28]
III: CCCCCCC[N+]1(C)CCC[C@H](CNC(=O)CCNC(=O)CNC(=O)CC(c2ccccc2)(c2ccccc2)c2ccccc2)C1.[Br-] (stereo partly drawn) [Example 146]
Lab note: order the above by reported Ki, lowest first, highest last. The labels, placed in the requested order, form the answer.
II, I, III

----------
EXPERIMENTAL TARGET: human m3 muscarinic acetylcholine receptor expressed in CHO cells (Homo sapiens, UniProt P20309)
EXPERIMENT NOTES: Inhibition of [3H]-N-methylscopolamine binding to muscarinic m3 receptor
COND: human m3 in CHO cells, 0.2 nM [3H]-N-methylscopolamine
ASSAY ENDPOINT: Ki (nM)

COMPOUND: CCCCCCC[N+]1(C)CCC[C@H](CNC(=O)CCNC(=O)CNC(=O)CC(c2ccccc2)(c2ccccc2)c2ccccc2)C1.[Br-] (stereo partly drawn) [Example 146]
UNIT ABBREVIATION: nM
Ki: 15

1: CC[N+]1(CC)CCC[C@H](CNC(=O)[C@H]2CCCN2C(=O)[C@@H]2C[C@@H](O)CN2C(=O)CC(c2ccc(Cl)cc2)(c2ccc(Cl)cc2)c2ccc(Cl)cc2)C1.[Cl-] [Example 144]
2: O=C(CCNC(=O)[C@H](Cc1c[nH]cn1)NC(=O)CC(c1ccccc1)(c1ccccc1)c1ccccc1)NC[C@H]1CCCN(CC2CCCCC2)C1 [Example 19]
3: CC[N+]1(CC)CCC[C@H](CNC(=O)[C@H]2CCCN2C(=O)[C@@H]2C[C@@H](O)CN2C(=O)CC(c2ccccc2)(c2ccccc2)c2ccccc2)C1.[Cl-] [Example 133]
4: CC[C@H](C)C[N+]1(CC)CCC[C@@H](CNC(=O)CCCCCNC(=O)CC(c2ccccc2)(c2ccccc2)c2ccccc2)C1.[Cl-] (stereo partly drawn) [Example 150]
5: O=C(CCNC(=O)CNC(=O)CC(c1ccccc1)(c1ccccc1)c1ccccc1)NC[C@H]1CCCN(CC2CCCCC2)C1 [Example 12]
// sort entries: Ki, high to low The labels, placed in the requested order, form the answer.
4, 3, 1, 2, 5
(4: 4.7 nM, 3: 3.2 nM, 1: 1.3 nM, 2: 0.75 nM, 5: 0.38 nM)

P: CCCCCN1CCC[C@H](CNC(=O)CCNC(=O)CNC(=O)CC(c2ccccc2)(c2ccccc2)c2ccccc2)C1 [Example 6]
Q: O=C(CCCCCNC(=O)CC(c1ccccc1)(c1ccccc1)c1ccccc1)NC[C@H]1CCCN(CC2CCCCC2)C1 [Example 28]
R: O=C(NC[C@H]1CCC[N+]2(CCCC2)C1)[C@H]1CCCN1C(=O)[C@@H]1C[C@@H](O)CN1C(=O)CC(c1ccccc1)(c1ccccc1)c1ccccc1.[Cl-] [Example 151]
Number of compounds to sort: 3. Sort criterion: Ki, ascending. The labels, placed in the requested order, form the answer.
Q, P, R

----------
EXPERIMENTAL TARGET: human m5 muscarinic acetylcholine receptor expressed in CHO cells (Homo sapiens, UniProt P08912)
Sequence (P08912 1-532): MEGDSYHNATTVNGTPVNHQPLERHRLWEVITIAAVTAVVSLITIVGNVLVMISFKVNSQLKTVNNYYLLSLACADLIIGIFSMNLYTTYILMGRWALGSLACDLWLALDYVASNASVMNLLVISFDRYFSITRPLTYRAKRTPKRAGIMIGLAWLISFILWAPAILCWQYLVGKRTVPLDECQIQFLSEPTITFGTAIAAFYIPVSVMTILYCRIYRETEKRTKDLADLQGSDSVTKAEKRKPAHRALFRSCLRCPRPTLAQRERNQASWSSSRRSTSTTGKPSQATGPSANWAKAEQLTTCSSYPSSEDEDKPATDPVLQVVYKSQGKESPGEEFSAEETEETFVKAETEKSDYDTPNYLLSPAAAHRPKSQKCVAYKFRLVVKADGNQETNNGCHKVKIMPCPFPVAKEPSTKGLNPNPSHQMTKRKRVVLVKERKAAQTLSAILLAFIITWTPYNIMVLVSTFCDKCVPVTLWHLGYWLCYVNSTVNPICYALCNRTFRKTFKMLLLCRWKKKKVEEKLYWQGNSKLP
ASSAY ENDPOINT: Ki (nM)

MOLECULE: CCCCCN1CCC[C@H](CNC(=O)CCNC(=O)CNC(=O)CC(c2ccccc2)(c2ccccc2)c2ccccc2)C1
UNIT ABBREVIATION: nM
ENDPOINT VALUE: 82
//
MOLECULE: O=C(CCNC(=O)CNC(=O)CC(c1ccccc1)(c1ccccc1)c1ccccc1)NC[C@H]1CCCN(CC2CCCCC2)C1
UNIT ABBREVIATION: nM
ENDPOINT VALUE: 32
//
MOLECULE: O=C(NC[C@H]1CCC[N+]2(CCCC2)C1)[C@H]1CCCN1C(=O)[C@@H]1C[C@@H](O)CN1C(=O)CC(c1ccccc1)(c1ccccc1)c1ccccc1.[Cl-]
UNIT ABBREVIATION: nM
ENDPOINT VALUE: 890

I: CCCCCCC[N+]1(C)CCC[C@H](CNC(=O)CCNC(=O)CNC(=O)CC(c2ccccc2)(c2ccccc2)c2ccccc2)C1.[Br-] (stereo partly drawn)
II: CC[N+]1(CC)CCC[C@H](CNC(=O)[C@H]2CCCN2C(=O)[C@@H]2C[C@@H](O)CN2C(=O)CC(c2ccccc2)(c2ccccc2)c2ccccc2)C1.[Cl-]
III: O=C(CCCCCNC(=O)CC(c1ccccc1)(c1ccccc1)c1ccccc1)NC[C@H]1CCCN(CC2CCCCC2)C1
// sort entries: Ki, high to low The labels, placed in the requested order, form the answer.
II, I, III
